Test system: IL-17A-induced G-CSF production in human normal keratinocyte (NHK)
ASSAY: NHK assay: IL-17A-induced G-CSF production in normal human keratinocytes
Assay type: cell-based
TEST PARAMETERS: Homo sapiens, Keratinocyte, 24 h, IL-17A 5 ng/mL, average if tested more than once
// IC50 lookup, one value per entry

Observe how each entry below is paired with its result.
>>> result("Cc1nonc1C(=O)N[C@@H](CC(C)(C)C(F)F)c1nc2ccc([C@H](NC(=O)CC3CC(F)(F)C3)C3CC3)cc2[nH]1 [Example 233]")
"> 100 nM"
>>> result("CCC(NC(=O)CCC(F)(F)F)c1ccc2[nH]c([C@@H](NC(=O)c3ccnn3C)C3CCC(F)(F)CC3)nc2c1 (single isomer, unassigned) [Example 52]")
"> 100 nM"

Query: Can you look up the measured IC50 of C[C@@H](NC(=O)CCC(F)(F)F)c1ccc2[nH]c([C@@H](NC(=O)c3ccc(CCC(F)(F)F)s3)C3CCC(F)(F)CC3)nc2c1 [Example 221] for me?
Response: > 100 nM
